test system: biotinyl-Val-oxazolone; experiment: self-aminoacylation, catalytic enhancement (BVO) (fold over background); higher = more active; k-Seq, kA / k0A0; sequences stand for … in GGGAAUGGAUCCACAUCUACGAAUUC…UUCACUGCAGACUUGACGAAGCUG
This sample holds only a part of the variants without activity.
In this section we review reported self-aminoacylation values for a set of sequences.
The response must contain the number and no unit.

// solved cases for self-aminoacylation follow
1. AUUCACCUAGGACGUCGGGUG [Fam2.2 aminoacylation ribozyme variant] ... 1.88
2. CGACUUCAAACAUUCGGUCUG [Fam1A.1 aminoacylation ribozyme variant] ... 1.96
3. CCACACUUCACGCAAUCGAUC [Fam1B.1 aminoacylation ribozyme variant] ... 0.606

Can you look up self-aminoacylation on biotinyl-Val-oxazolone for AUUCCCCUUGUCAUCGAGUGA [Fam2.1 aminoacylation ribozyme variant] ?
7.45

* * *

self-aminoacylation values for the sequences below.
tested on: biotinyl-Met-oxazolone; test: self-aminoacylation, catalytic enhancement (BMO) (fold over background); higher = more active; k-Seq, kA / k0A0; sequences stand for … in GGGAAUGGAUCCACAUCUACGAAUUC…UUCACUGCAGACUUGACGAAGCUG
Fewer inactive variants are shown than the library holds.
Hey, just send me the number, nothing else.

1) AUUCACCUAGUUCAUCCGGUG [Fam2.2 aminoacylation ribozyme variant] ... 3.23

// query self-aminoacylation value for entry ACUACCCUGGUCAUCAAGUGA [Fam2.1 aminoacylation ribozyme variant]
3.19

# get_value(readout='self-aminoacylation', item= AUUCACCUAGGUCAUCGUGUG [Fam2.2 aminoacylation ribozyme variant] )
0.951

Record request: self-aminoacylation value, item AAGUUCGCUAAUAGCCGCAAG [Fam3.1 aminoacylation ribozyme variant]
1.82

Fill in: self-aminoacylation of CUACUUCAAACAUACGGUCUG [Fam1A.1 aminoacylation ribozyme variant] is ___
0.565

Report self-aminoacylation for UCACACUUCCAGCAAUCGGUC [Fam1B.1 aminoacylation ribozyme variant] please.
1.14

Fill in the blank: the reported self-aminoacylation of GUUCACCUGGGUCAUCGGGUG [Fam2.2 aminoacylation ribozyme variant] is ____.
5.48

For the sequence shown here, AUUCACCGAGGUUAUCGGGUG [Fam2.2 aminoacylation ribozyme variant] , give the reported self-aminoacylation.
7.16

Quick check: self-aminoacylation of UCACACUUCAAACAAUCGGUC [Fam1B.1 aminoacylation ribozyme variant] ?
1.66

* * *

system: biotinyl-Trp-oxazolone; assay: self-aminoacylation, catalytic enhancement (BWO) (fold over background); higher = more active; k-Seq, kA / k0A0; sequences stand for … in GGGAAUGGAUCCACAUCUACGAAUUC…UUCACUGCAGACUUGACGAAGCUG
Variants at the floor of the assay were thinned out.
# self-aminoacylation annotations
Please reply with the number alone, leaving off any unit.

1) AAGUUUGCUAAUGGUCGGAAG [Fam3.1 aminoacylation ribozyme variant] ... 0.587
2) AUUACCCUGGUCAUGGAGUCA [Fam2.1 aminoacylation ribozyme variant] ... 0.594
3) CCACACUUCAAGCAUUCAGUC [Fam1B.1 aminoacylation ribozyme variant] ... 0.562

Looking for the measured self-aminoacylation of CUACUCCAAACAAUCUGUCUG [Fam1A.1 aminoacylation ribozyme variant] , can you help?
0.506

* * *

system: biotinyl-Phe-oxazolone; experiment: self-aminoacylation, catalytic enhancement (BFO) (fold over background); higher = more active; k-Seq, kA / k0A0; sequences stand for … in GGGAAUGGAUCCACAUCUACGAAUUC…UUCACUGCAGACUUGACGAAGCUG
Variants at the floor of the assay were thinned out.
# self-aminoacylation >= 20 gives Fulfilled, anything below gives Not fulfilled

Consider the worked cases shown below.
1) AUUCACCCAGGUAAUCGGGUG [Fam2.2 aminoacylation ribozyme variant] ... Not fulfilled
2) CUGACCCUGGUCAUCGAGUGA [Fam2.1 aminoacylation ribozyme variant] ... Not fulfilled

Say whether AUUACCCUGGUCCUCGGGUGA [Fam2.1 aminoacylation ribozyme variant] shows self-aminoacylation of 20 or more.
Fulfilled

I'd appreciate it if you could say whether AUUCAACUAGUUCAUCGGGUG [Fam2.2 aminoacylation ribozyme variant] has self-aminoacylation at least equal to 20.
Not fulfilled

Given ACGACCCUGGUCAUCGAGUGA [Fam2.1 aminoacylation ribozyme variant] , state whether its self-aminoacylation is at least 20.
Not fulfilled

* * *

system: biotinyl-Val-oxazolone; assay: self-aminoacylation, catalytic enhancement (BVO) (fold over background); higher = more active; k-Seq, kA / k0A0; sequences stand for … in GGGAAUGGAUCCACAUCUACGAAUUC…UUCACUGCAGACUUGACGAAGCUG
Fewer inactive variants are shown than the library holds.
// NOT MET strictly below 2 in self-aminoacylation; MET otherwise

1) AUUCACUUACGUCAUCGGGUG [Fam2.2 aminoacylation ribozyme variant] ... MET
2) AAUCCCCUAGGUCAUCGGGUG [Fam2.2 aminoacylation ribozyme variant] ... MET
3) AUUCACCUAGGUAUUCGGGUG [Fam2.2 aminoacylation ribozyme variant] ... MET
4) CCAUACUUCAAGCAAUUGGUC [Fam1B.1 aminoacylation ribozyme variant] ... NOT MET
5) CUACUUCAAACGAUCGGUCUA [Fam1A.1 aminoacylation ribozyme variant] ... NOT MET
6) AAGUGUGCGAAUAGUCGCAAG [Fam3.1 aminoacylation ribozyme variant] ... NOT MET
7) CCACACUUCAAUCAAGCGGUC [Fam1B.1 aminoacylation ribozyme variant] ... NOT MET
8) AAGUCUGCUAAUAGCCGCAAG [Fam3.1 aminoacylation ribozyme variant] ... NOT MET

Does CCACACUUCAAGCAAGCAGUC [Fam1B.1 aminoacylation ribozyme variant] have a reported self-aminoacylation of at least 2?
NOT MET

Can AUUCACCUAAGUCAUCGGCUG [Fam2.2 aminoacylation ribozyme variant] be said to have self-aminoacylation at or above 2?
NOT MET

Could you verify whether the entry AUUACCCUGGUCAUCGUAUGA [Fam2.1 aminoacylation ribozyme variant] shows self-aminoacylation of no less than 2?
NOT MET

In plain terms: is recorded self-aminoacylation at least 2 for CUACUUUAAACAAUCGGUCGG [Fam1A.1 aminoacylation ribozyme variant] ?
NOT MET

Please indicate if the recorded self-aminoacylation for AUUACCCCGGUCAUAGAGUGA [Fam2.1 aminoacylation ribozyme variant] meets or exceeds 2.
MET

API: above_or_equal(metric=self-aminoacylation, cutoff=2) for item CCACACCUCAUGCAAUCGGUC [Fam1B.1 aminoacylation ribozyme variant]
NOT MET

Is the recorded value of self-aminoacylation equal to or greater than 2 for this sequence? GAGUUUGCUAAUUGUCGCAAG [Fam3.1 aminoacylation ribozyme variant]
NOT MET

Say whether AUUCACCUAGGUGAUUGGGUG [Fam2.2 aminoacylation ribozyme variant] shows self-aminoacylation of 2 or more.
MET

Dear colleague, could you confirm whether CCACACGUCAUGCAAUCGGUC [Fam1B.1 aminoacylation ribozyme variant] has self-aminoacylation at or above 2?
NOT MET

In plain terms: is recorded self-aminoacylation at least 2 for AAUUCUGCUAAUAGUCGCAAG [Fam3.1 aminoacylation ribozyme variant] ?
NOT MET

Does the reported self-aminoacylation for AAGUUUGCUACUAGUCGCCAG [Fam3.1 aminoacylation ribozyme variant] fall at or above the 2 mark?
NOT MET

Could you tell me if the measured self-aminoacylation of AAGGUUGCUCAUAGUCGCAAG [Fam3.1 aminoacylation ribozyme variant] reaches 2 or more?
NOT MET

Evaluate CAGUUUGCUAAUAGUCACAAG [Fam3.1 aminoacylation ribozyme variant] : self-aminoacylation at minimum 2?
NOT MET

Threshold query (self-aminoacylation >= 2) on AUUCACCUAGGCCAUCGGGUA [Fam2.2 aminoacylation ribozyme variant]
MET

Is the recorded value of self-aminoacylation equal to or greater than 2 for this sequence? AUACACCUAGGUCAUCGGGUU [Fam2.2 aminoacylation ribozyme variant]
MET

Check if self-aminoacylation >= 2 (inclusive). Item: CCACACUUCAAGUACUCGGUC [Fam1B.1 aminoacylation ribozyme variant]
NOT MET

Does the reported self-aminoacylation for CUACUUCAAACGACCGGUCUG [Fam1A.1 aminoacylation ribozyme variant] fall at or above the 2 mark?
NOT MET

Decide: is the reported value of self-aminoacylation for CAACACUUCAAGCAAUUGGUC [Fam1B.1 aminoacylation ribozyme variant] equal to or greater than 2?
NOT MET

Quick check, self-aminoacylation >= 2? AUUCACCUUGUUCAUCGGGUG [Fam2.2 aminoacylation ribozyme variant]
MET

* * *

system: biotinyl-Val-oxazolone; assay: self-aminoacylation, catalytic enhancement (BVO) (fold over background); higher = more active; k-Seq, kA / k0A0; sequences stand for … in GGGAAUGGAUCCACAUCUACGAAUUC…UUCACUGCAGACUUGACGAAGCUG
Fewer inactive variants are shown than the library holds.
Reported self-aminoacylation values for the following sequences.
Output spec: single numeric token, no unit.

// worked examples, self-aminoacylation included
1) CUACUUCAAACAAUCGGUGUA [Fam1A.1 aminoacylation ribozyme variant] ... 0.946
2) UUACUUCAGACAAUCGGUCUG [Fam1A.1 aminoacylation ribozyme variant] ... 1.12
3) CUACACUUCAAGCACUCGGUC [Fam1B.1 aminoacylation ribozyme variant] ... 0.945
4) AUUACCCAGUUCAUCGAGUGA [Fam2.1 aminoacylation ribozyme variant] ... 2.62
5) AAGUUUGCUGAUAGUCGCAAA [Fam3.1 aminoacylation ribozyme variant] ... 1.55
6) AUUUACCUAGGUCAGCGGGUG [Fam2.2 aminoacylation ribozyme variant] ... 3.16
7) AUUACCCUUGUCAUAGAGUGA [Fam2.1 aminoacylation ribozyme variant] ... 4.59
8) AAGUUUUCUAAUAGUCCCAAG [Fam3.1 aminoacylation ribozyme variant] ... 1.08

Any idea what self-aminoacylation was measured for AAGUCUGCUAAUAGUCGCAAC [Fam3.1 aminoacylation ribozyme variant] ?
1.06

Using the record for UUUACGCUGGUCAUCGAGUGA [Fam2.1 aminoacylation ribozyme variant] , report its self-aminoacylation.
4.07

Which self-aminoacylation reading was recorded for the sequence AUUACCGUGGUCAUCGUGUGA [Fam2.1 aminoacylation ribozyme variant] ?
1.25

Value lookup for self-aminoacylation; key = AUUCACCUAGCUCAUCGGUUG [Fam2.2 aminoacylation ribozyme variant]
0.845

Which self-aminoacylation value belongs to AUCCACCUAGGUCAUGGGGUG [Fam2.2 aminoacylation ribozyme variant] ?
3.77

For the sequence AUCCCCCUGGUCAUCGAGUGA [Fam2.1 aminoacylation ribozyme variant] , what self-aminoacylation is on record?
4.12

What value of self-aminoacylation has been reported for the following sequence? AUUCACCUAGGUCAUCGUAUG [Fam2.2 aminoacylation ribozyme variant]
0.737

What value of self-aminoacylation has been recorded for this entry: GUUCACCUGGGUCAUCGGGUG [Fam2.2 aminoacylation ribozyme variant]
5.58

Entry AUUACCCUAGACAUCGAGUGA [Fam2.1 aminoacylation ribozyme variant] : reported self-aminoacylation = ?
4.07

Reported self-aminoacylation, sequence AUUCCGCUGGUCAUCGAGUGA [Fam2.1 aminoacylation ribozyme variant] : ____
3.7

What does the record list as self-aminoacylation for CCACACUUCAUGCAAUCGGUG [Fam1B.1 aminoacylation ribozyme variant] ?
2.65

What does the data say about its self-aminoacylation? Entry: GCACACUUCAAGGAAUCGGUC [Fam1B.1 aminoacylation ribozyme variant]
1.22

I am curious: what self-aminoacylation value has been reported for CUGCUGCAAACAAUCGGUCUG [Fam1A.1 aminoacylation ribozyme variant] ?
1.07

# query: self-aminoacylation of entry CUACUUCAAGCUAUCGGUCUG [Fam1A.1 aminoacylation ribozyme variant]
0.892

# get_value(readout='self-aminoacylation', item= AUUACCCAGGUCAUCGGGUGA [Fam2.1 aminoacylation ribozyme variant] )
7.25

For the sequence CUUCACCUAGGUCAUCAGGUG [Fam2.2 aminoacylation ribozyme variant] , what self-aminoacylation is on record?
1.7

Item CUCCUUCAAACCAUCGGUCUG [Fam1A.1 aminoacylation ribozyme variant] has what recorded self-aminoacylation?
0.977

I am curious: what self-aminoacylation value has been reported for AAGUUUGCUAGUAGUCGCGAG [Fam3.1 aminoacylation ribozyme variant] ?
1.54

Which self-aminoacylation value belongs to AUUGCCCUGGUCAUCGAGGGA [Fam2.1 aminoacylation ribozyme variant] ?
2.22

Give its self-aminoacylation value. Item: CCGCACUUCAAGUAAUCGGUC [Fam1B.1 aminoacylation ribozyme variant]
1.37

Tell me the measured self-aminoacylation of CCACACUUCACGCGAUCGGUC [Fam1B.1 aminoacylation ribozyme variant] , please.
2.17

Quick one: self-aminoacylation for AUUACCCUGUUCAUCGCGUGA [Fam2.1 aminoacylation ribozyme variant] ?
11.7

Data request, read-out self-aminoacylation, for AUUACCCUGGUCAUAGAGUGA [Fam2.1 aminoacylation ribozyme variant]
4.94

Returns the measured self-aminoacylation for the input sequence. Input: CUACAUCAAACCAUCGGUCUG [Fam1A.1 aminoacylation ribozyme variant]
0.932
